tested system: Stp1 (UniProt B3LFK1)
Sequence: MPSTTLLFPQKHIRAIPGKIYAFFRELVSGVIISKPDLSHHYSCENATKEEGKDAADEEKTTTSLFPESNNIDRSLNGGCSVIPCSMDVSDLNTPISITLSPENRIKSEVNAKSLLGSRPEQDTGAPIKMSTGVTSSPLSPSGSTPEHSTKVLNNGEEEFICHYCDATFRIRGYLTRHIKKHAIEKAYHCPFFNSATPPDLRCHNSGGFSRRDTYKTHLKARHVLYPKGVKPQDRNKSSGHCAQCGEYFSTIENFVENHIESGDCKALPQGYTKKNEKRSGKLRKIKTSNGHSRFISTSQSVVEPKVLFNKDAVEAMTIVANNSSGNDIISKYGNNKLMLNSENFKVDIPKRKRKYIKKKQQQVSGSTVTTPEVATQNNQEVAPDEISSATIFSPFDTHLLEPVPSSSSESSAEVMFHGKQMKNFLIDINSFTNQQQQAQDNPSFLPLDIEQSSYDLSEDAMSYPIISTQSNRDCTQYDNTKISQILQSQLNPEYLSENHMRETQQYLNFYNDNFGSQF
assay protocol: PBM E-score (8-mer binding enrichment) (E-score (-0.5 to 0.5)); higher = stronger / more preferred TF binding
test parameters: protein concentration: 200 nM; construct: GST-full length
In all, about 33,000 sequences were measured (“E-score (-0.5 to 0.5)”: median about -0.016, highest 2% from about 0.32 on). This is one part of a sample in which the highest values are shown more often than they occur.
Response key: y means PBM E-score >= -0.01; n means PBM E-score < -0.01.

Exam item: decide whether the reported PBM E-score for `CCCAACCC` is at least -0.01.
n

Exam item: decide whether the reported PBM E-score for `CGGCGTCC` is at least -0.01.
y

Exam item: decide whether the reported PBM E-score for `GAGGTCAC` is at least -0.01.
n

Exam item: decide whether the reported PBM E-score for `CAAGCGGA` is at least -0.01.
n

Exam item: decide whether the reported PBM E-score for `CAAGCGGG` is at least -0.01.
n

Exam item: decide whether the reported PBM E-score for `ATTGATTA` is at least -0.01.
y

Exam item: decide whether the reported PBM E-score for `GAAGCGGA` is at least -0.01.
n

Exam item: decide whether the reported PBM E-score for `GTCGACTA` is at least -0.01.
y

Exam item: decide whether the reported PBM E-score for `CGCAGTAA` is at least -0.01.
y

Exam item: decide whether the reported PBM E-score for `CGATGATC` is at least -0.01.
n

Exam item: decide whether the reported PBM E-score for `CGGCAACC` is at least -0.01.
y

Exam item: decide whether the reported PBM E-score for `CAAGCGGC` is at least -0.01.
y

Exam item: decide whether the reported PBM E-score for `CCCGCTGA` is at least -0.01.
n

Exam item: decide whether the reported PBM E-score for `AAGCATCT` is at least -0.01.
n

Exam item: decide whether the reported PBM E-score for `AGGCAACG` is at least -0.01.
y

Exam item: decide whether the reported PBM E-score for `AACTACGG` is at least -0.01.
y

Exam item: decide whether the reported PBM E-score for `ATTGATTC` is at least -0.01.
y

Exam item: decide whether the reported PBM E-score for `AGTCATTG` is at least -0.01.
n

Exam item: decide whether the reported PBM E-score for `AAGCGCTT` is at least -0.01.
y

Exam item: decide whether the reported PBM E-score for `CCAAGCCC` is at least -0.01.
n

Exam item: decide whether the reported PBM E-score for `ATCTATTG` is at least -0.01.
y

Exam item: decide whether the reported PBM E-score for `AGGCAACA` is at least -0.01.
y
